Measured Intrinsic activity, listed per entry.
Target: Glucose-dependent insulinotropic receptor (Homo sapiens) (UniProt Q8TDV5)
Sequence (Q8TDV5 whole entry): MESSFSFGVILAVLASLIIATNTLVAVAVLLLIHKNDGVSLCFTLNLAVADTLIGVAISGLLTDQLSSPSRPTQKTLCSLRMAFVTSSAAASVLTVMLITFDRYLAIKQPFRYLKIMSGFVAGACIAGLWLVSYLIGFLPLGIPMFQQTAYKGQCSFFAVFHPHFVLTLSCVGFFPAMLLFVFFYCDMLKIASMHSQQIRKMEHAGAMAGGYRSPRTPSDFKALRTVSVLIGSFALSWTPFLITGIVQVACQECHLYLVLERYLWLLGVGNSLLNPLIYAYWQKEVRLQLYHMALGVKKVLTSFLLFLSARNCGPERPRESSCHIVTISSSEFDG
Experiment: Intrinsic activity at human GPR119 relative to control
OBSERVABLE: Intrinsic activity

entry_smiles=CCCc1cnc(N2CCC(Oc3cc(=O)n(-c4ccc(S(C)(=O)=O)cc4)cc3Cl)CC2)nc1 experimental_result=0.8
entry_smiles=Cc1ccnc(N2CCC(Oc3ccn(-c4ccc(S(C)(=O)=O)cc4)c(=O)c3)CC2)n1 experimental_result=0.3
entry_smiles=CS(=O)(=O)c1ccc(-n2ccc(OC3CCN(c4ncc(C5CC5)cn4)CC3)cc2=O)cc1 experimental_result=0.9
entry_smiles=CCc1ccc(N2CCC(Oc3ccn(-c4ccc(S(C)(=O)=O)cc4)c(=O)c3)CC2)nc1 experimental_result=0.6

Data provenance: ChEMBL document CHEMBL3352258
